Tested on: ARPE-19 cell line
Assay: Gene expression profiling (U133A2.0 microarrays) of drug-treated ARPE-19 cells; antipsychotic signature of lipid homeostasis genes
Assay type: cell-based, human
Settings: ARPE-19, 10 μM, 24 hrs; FIG. 3
Method: The retinal pigment epithelia cell line, ARPE-19/HPV-16, was chosen to establish a database of drug profiles because it is from non-cancerous human origin, with a normal karyotype, and can easily be grown as monolayer in 96-well plates. […] Cells were harvested 24 hrs after treatment and RNA extracted using the RNeasy 96 protocol (Qiagen, Valencia, Calif.). […] A total of 708 microarrays were analysed including 74 for the 18 antipsychotics, 499 for the other 448 compounds, and 135 for vehicle controls. […]
Readout: up-regulation of the top 20 probe sets of the antipsychotic group profile

# Compound, Study Target, Result
rows = [
    ("OCCN1CCN(CCCN2c3ccccc3Sc3ccc(C(F)(F)F)cc32)CC1 [fluphenazine]", "ARPE-19 cell line", "stronger up-regulation"),
    ("COc1cc(C(C)=O)ccc1OCCCN1CCC(c2noc3cc(F)ccc23)CC1 [iloperidone]", "ARPE-19 cell line", "stronger up-regulation"),
    ("CCc1c(C)[nH]c2c1C(=O)C(CN1CCOCC1)CC2 (centres unmarked) [Molindone]", "ARPE-19 cell line", "lowest effect"),
    ("CN1CCCCC1CCN1c2ccccc2Sc2ccc([S+](C)[O-])cc21 (centres unmarked) [mesoridazine]", "ARPE-19 cell line", "lowest effect"),
    ("OCCN1CCN(CCCN2c3ccccc3Sc3ccc(Cl)cc32)CC1 [perphenazine]", "ARPE-19 cell line", "stronger up-regulation"),
]
